Each entry below carries its reported Control.
System: HeLa
measurement_protocol: In vitro cytotoxicity against human cervix carcinoma HeLa S3 cells
Assay type: functional
Set-up: concentration or dose not given beside the values
Give a bare numeral; the unit % is implied.

smiles_input	Control [%]
Nc1nc(OCCOCP(=O)(O)O)cc(=O)n1CCOCP(=O)(O)O	72

Dear colleague, please send me the reported Control for "Nc1cc(OCCOCP(=O)(O)O)ncn1" when you can. 86

Dear colleague, please send me the reported Control for "CSc1nc(N)cc(OCCOCP(=O)(O)O)n1" when you can. 79

Dear colleague, please send me the reported Control for "Cc1cc(=O)n(CCOCP(=O)(O)O)c(N)n1" when you can. 83

Dear colleague, please send me the reported Control for "Nc1cc(OCCOCP(=O)(O)O)nc(N)n1" when you can. 89
